Target: MAGI3_2, Q5TCQ9
Sequence (Q5TCQ9 398-503): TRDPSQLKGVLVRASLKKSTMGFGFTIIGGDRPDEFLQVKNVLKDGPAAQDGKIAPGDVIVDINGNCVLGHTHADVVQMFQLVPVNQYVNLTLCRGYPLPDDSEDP
Assay: holdup assay
Set-up: key: below the threshold = too weak to quantify, mostly under pKd 3.1 to 4
Conditions: plain residues with an end cap or a label only (N-terminal biotin on a linker: ado-ado)
measurement-name: pKd

>>> df
                        binder  measurement_name  recorded_measurement
0   VRNLPESEEL [MYOZ3, Q8TDC0]               pKd   below the threshold
1  PLSPEQPTKL [TRIM50, Q86XT4]               pKd   below the threshold
2   RRLPGKETMA [GRIK2, Q13002]               pKd   below the threshold
3   PPYRHRNTVV [ERBB4, Q15303]               pKd                  4.79
